Source: PubChem BioAssay AID1159580

# Method Notes: chemical genetic growth profiling, strain panel (AID 1159580);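 also: tested at 20 µM; growth read once vehicle control cultures reached saturation at 30 °C; 1 = growth at the plate median or of vehicle wells; lower values mean less growth of the strain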
# Test Parameters: S. cerevisiae deletion strains, growth OD, locus YPL241C, strain CIN2, hits give low values
Among all 5,500 compounds or so, about 2,000 (36%) were called active. Inconclusive results (about 18%) are left out. This is one part of the list.
Measured normalized growth, listed per entry for reference.
Give only the figure.

Worked cases, answers included:
                                   compound  reported_result
0      NC(=NCCC[C@H](N)C(=O)O)N[N+](=O)[O-]                1
1  CCOC(=O)c1sc(S(C)(=O)=O)c2c1CCCC2O (stereo not drawn)             1.02

Please look at the following compound next.
Incoming: Given N[C@@H](COP(=O)(O)O)C(=O)O , state its recorded normalized growth.
Outgoing: 0.997
